Provenance of the data: ChEMBL document CHEMBL1123620

target: UniProt:P00797; assay: Inhibition of purified human kidney renin, fluorometric assay using a synthetic tetradecapeptide renin substrate at 10e-9 M concentration
Sequence (P00797 whole entry): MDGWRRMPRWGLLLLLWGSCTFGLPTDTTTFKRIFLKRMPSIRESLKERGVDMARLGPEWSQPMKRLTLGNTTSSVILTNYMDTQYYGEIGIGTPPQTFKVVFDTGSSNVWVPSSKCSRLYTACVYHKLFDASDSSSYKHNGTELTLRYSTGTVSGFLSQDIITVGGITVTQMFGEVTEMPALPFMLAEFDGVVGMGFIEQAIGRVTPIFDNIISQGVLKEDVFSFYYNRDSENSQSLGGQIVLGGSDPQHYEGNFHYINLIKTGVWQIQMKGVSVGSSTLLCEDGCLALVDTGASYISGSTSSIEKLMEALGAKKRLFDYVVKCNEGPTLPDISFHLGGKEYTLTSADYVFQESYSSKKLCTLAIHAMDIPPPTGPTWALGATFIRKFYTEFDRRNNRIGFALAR
Catalogue of Ki values

| Compound | Reading Unit | Ki |
| --- | --- | --- |
| CC(C)CC(NC(=O)[C@H](Cc1c[nH]cn1)NC(=O)[C@H](Cc1ccccc1)NC(=O)OC(C)(C)C)C(O)CC(=O)N[C@@H](CC(C)C)C(=O)NC(C)C(O)c1ccccc1 (some centres undefined) | nM | 67 |
| CC(C)CC(NC(=O)[C@H](Cc1cnc[nH]1)NC(=O)[C@H](Cc1ccccc1)NC(=O)OC(C)(C)C)C(O)CC(=O)N[C@@H](CC(C)C)C(=O)NC(C)c1ccccc1 (single isomer, unassigned; (+)) | nM | 19 |
| C=C1c2ccccc2CC(NC(=O)[C@H](CC(C)C)NC(=O)CC(O)C(CC(C)C)NC(=O)[C@H](Cc2c[nH]cn2)NC(=O)[C@H](Cc2ccccc2)NC(=O)OC(C)(C)C)c2ccccc21 (some centres undefined) | nM | 120 |
| CC(C)CC(NC(=O)[C@H](Cc1c[nH]cn1)NC(=O)[C@H](Cc1ccccc1)NC(=O)OC(C)(C)C)C(O)CC(=O)N[C@@H](CC(C)C)C(=O)NC1CCN(Cc2ccccc2)CC1 (some centres undefined) | nM | 0.064 |
